Data provenance: paper PMC9782539

measured on: AChE (Homo sapiens, UniProt P22303)
Sequence (P22303 32-614): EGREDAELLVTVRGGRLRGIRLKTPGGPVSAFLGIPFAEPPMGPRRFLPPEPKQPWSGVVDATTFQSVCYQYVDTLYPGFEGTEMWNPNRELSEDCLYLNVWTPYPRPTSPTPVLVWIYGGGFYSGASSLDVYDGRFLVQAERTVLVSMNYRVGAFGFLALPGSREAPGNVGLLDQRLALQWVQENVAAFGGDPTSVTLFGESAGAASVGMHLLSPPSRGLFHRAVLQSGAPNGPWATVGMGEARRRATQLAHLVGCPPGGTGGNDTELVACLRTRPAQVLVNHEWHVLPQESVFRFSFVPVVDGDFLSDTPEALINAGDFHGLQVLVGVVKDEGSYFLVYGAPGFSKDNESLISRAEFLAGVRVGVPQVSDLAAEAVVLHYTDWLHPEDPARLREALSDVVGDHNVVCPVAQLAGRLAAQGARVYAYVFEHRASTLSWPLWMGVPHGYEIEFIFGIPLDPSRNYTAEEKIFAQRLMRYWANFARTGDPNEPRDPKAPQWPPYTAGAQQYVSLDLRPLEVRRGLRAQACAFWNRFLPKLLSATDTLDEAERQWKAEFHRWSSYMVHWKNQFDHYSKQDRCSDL
experiment description: biochemical; note: test concentration or dose not given here
Format: biochemical
Inhibition Rate (%) AChE listing for selected compounds.
Quick reminder: number only, in %, skip the unit.

The following compounds have reported results that may help.
{"columns": ["mol", "result unit", "Inhibition Rate (%) AChE"],
 "data": [
  ["O=C(CN1CCc2ccccc2[C@H]1c1ccccc1)Nc1nc2ccc(Br)cc2s1", "%", 1.10],
  ["O=C(CN1CCc2ccccc2[C@H]1c1ccccc1)Nc1nc2cc(Cl)ccc2s1", "%", 4.42],
  ["O=C(CN1CCc2ccccc2[C@H]1c1ccccc1)Nc1nc2ccc(F)cc2s1", "%", 2.76],
  ["Cc1cccc2sc(NC(=O)CN3CCc4ccccc4[C@H]3c3ccccc3)nc12", "%", 1.10],
  ["O=C(CN1CCc2ccccc2[C@H]1c1ccccc1)Nc1nc2ccc(Cl)cc2s1", "%", 1.10],
  ["Cc1ccc2nc(NC(=O)CN3CCc4ccccc4[C@H]3c3ccccc3)sc2c1", "%", 2.21]
]}

Query: Inhibition Rate (%) AChE lookup needed for "Cc1ccc2sc(NC(=O)CN3CCc4ccccc4[C@H]3c3ccccc3)nc2c1" , thanks.
Response: 3.31

Query: Inhibition Rate (%) AChE lookup needed for "COc1ccc2sc(NC(=O)CN3CCc4ccccc4[C@H]3c3ccccc3)nc2c1" , thanks.
Response: 3.31
